Tested on: bone marrow derived macrophages (BMDMs)
assay.protocol: NAD^+ levels in LPS-treated bone marrow derived macrophages (enzyme-coupled luciferase assay)
Format: cell-based, mouse
condition.notes: BMDMs, 6 hours of treatment, in the presence of LPS
quantity.kind: LPS-induced drop in NAD^+ levels

CN(C)CC(=O)Nc1ccc2[nH]c(=O)c3ccccc3c2c1 [PJ-34] ... completely blocked
O=C(O)c1ccccc1-c1ccccc1C(=O)Nc1ccc2c(c1)[nH]c(=O)c1ccccc12 [NSC-127133] ... able to block the fall
CCOc1ccccc1Cl [NSC-61610] ... able to block the fall
NC(=O)c1cccc(N)c1 [3-aminobenzimide] ... completely blocked
